Target: P11W^IFS (Hg^2+-crosslinked P11W/K55C/A364C GltPh, inward-facing state) (Pyrococcus horikoshii, UniProt O59010, A364C/C321A/D37H/E368H/K125H/K132H/K223H/K264H/K40H/K55C/P11W)
Sequence (O59010 whole entry P11W/D37H/K40H/K55C/K125H/K132H/K223H/K264H/C321A/A364C/E368H): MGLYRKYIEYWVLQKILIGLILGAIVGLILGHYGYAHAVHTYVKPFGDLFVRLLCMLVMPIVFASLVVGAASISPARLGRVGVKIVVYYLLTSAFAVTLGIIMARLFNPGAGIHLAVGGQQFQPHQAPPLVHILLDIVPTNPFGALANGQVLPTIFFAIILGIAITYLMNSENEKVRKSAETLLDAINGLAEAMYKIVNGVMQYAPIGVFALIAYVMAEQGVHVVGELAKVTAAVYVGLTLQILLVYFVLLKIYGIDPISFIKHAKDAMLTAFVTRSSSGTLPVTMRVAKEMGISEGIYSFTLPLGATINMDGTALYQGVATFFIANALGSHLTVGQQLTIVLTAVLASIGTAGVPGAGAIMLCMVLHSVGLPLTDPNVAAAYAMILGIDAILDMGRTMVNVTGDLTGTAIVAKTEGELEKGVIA
Type: binding
Conditions: Hill coefficient n fixed to 2; L-asp dissociation experiments; read-out: KD,Na of rapidly equilibrating Na^+ ions (fit to Equation 2)
Method: For emission scans, protein samples at 1 µM were prepared in 2 mL of 20 mM Hepes/Tris pH 7.4, 300 mM choline chloride and 1 mM DDM. […] Baseline was determined using buffer only and subtracted from the data. […] For real-time fluorescence measurements of ligand binding, protein samples at 1 µM were incubated in 2 mL fluorometer cell containing 20 mM Hepes/Tris pH 7.4, 300 mM choline chloride and 1 mM DDM with various NaCl concentrations at 25°C. […]
measured endpoint: Kd (µM)

[Na+] [Na^+, sodium]: 130

----------
Target: P11W^IFS (Hg^2+-crosslinked P11W/K55C/A364C GltPh, inward-facing state) (Pyrococcus horikoshii, UniProt O59010, A364C/C321A/D37H/E368H/K125H/K132H/K223H/K264H/K40H/K55C/P11W)
Format: binding
Settings: read-out: affinity of the two 'locking' Na^+ ions
Protocol: For emission scans, protein samples at 1 µM were prepared in 2 mL of 20 mM Hepes/Tris pH 7.4, 300 mM choline chloride and 1 mM DDM. […] Baseline was determined using buffer only and subtracted from the data. […] For real-time fluorescence measurements of ligand binding, protein samples at 1 µM were incubated in 2 mL fluorometer cell containing 20 mM Hepes/Tris pH 7.4, 300 mM choline chloride and 1 mM DDM with various NaCl concentrations at 25°C. […]
pKd: −log10 of the molar value.
measured endpoint: pKd

[Na+] [Na^+, sodium]: ~4.00

----------
molecular target: P11W^IFS (Hg^2+-crosslinked P11W/K55C/A364C GltPh, inward-facing state) (Pyrococcus horikoshii, UniProt O59010, A364C/C321A/D37H/E368H/K125H/K132H/K223H/K264H/K40H/K55C/P11W); type: binding; conditions: Hill coefficient n fixed to 1; L-asp dissociation experiments; read-out: KD,Na of rapidly equilibrating Na^+ ions (fit to Equation 2)
measured endpoint: Kd

[Na+] [Na^+, sodium]: 40 µM
